Each recorded value in this set is attributed to patent US20050256058A1.

Target: T1, Clostripain, P09870
T1 chain: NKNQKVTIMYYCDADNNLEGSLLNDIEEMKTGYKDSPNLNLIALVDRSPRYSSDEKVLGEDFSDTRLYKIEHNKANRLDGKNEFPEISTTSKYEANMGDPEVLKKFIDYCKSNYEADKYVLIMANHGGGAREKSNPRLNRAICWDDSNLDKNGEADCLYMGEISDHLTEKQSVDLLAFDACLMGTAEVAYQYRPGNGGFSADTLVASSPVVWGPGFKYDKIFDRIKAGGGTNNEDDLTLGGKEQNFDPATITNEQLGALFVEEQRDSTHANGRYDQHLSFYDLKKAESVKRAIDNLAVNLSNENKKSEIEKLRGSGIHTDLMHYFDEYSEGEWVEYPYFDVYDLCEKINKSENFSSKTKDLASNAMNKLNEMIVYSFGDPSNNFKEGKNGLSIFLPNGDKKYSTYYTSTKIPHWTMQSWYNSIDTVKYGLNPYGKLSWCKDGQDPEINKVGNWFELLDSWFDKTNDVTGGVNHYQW
Assay: cell-based or functional assay
Measured log10 of k2, listed per entry.
PROPERTY LABEL: log10 of k2 (log10 of the value in M⁻¹ s⁻¹)

# BINDER, DATA VALUE
measured = [
    ("LK (modifications not checked) [PhPr-Leu-ALys-CH═CH-CON(CH2-1-naphthyl2]", 3.35),
    ("LK (modifications not checked) [PhPr-Leu-ALys-CH═CH-CON(Me)CH2Ph]", 3.78),
    ("LK (modifications not checked) [PhPr-Leu-ALys-CH═CH-CONHCH2Ph]", 3.02),
    ("LR (modifications not checked) [PhPr-Leu-AArg-CH═CH-CONHCH2Ph]", 5.46),
    ("LR (modifications not checked) [PhPr-Leu-AArg-CH═CH-CON(CH2Ph)2]", 5.68),
]
